# experimentDescription: Toxicity against brine shrimp
# Type: organism-based
# experimentalContext: artemia, in vivo
measurementName: LC50 (µg/mL)
# value in µg/mL; strip the unit string

Task: Fill in LC50 for record CC(=O)O[C@H]1C[C@@H]2O[C@]2(C)[C@@H]2CC3=C(C)C(=O)O[C@H]3/C=C(/C)CC[C@H](OC(=O)C=C(C)C)[C@@]12C [MALAYENOLIDE D]
Output: 20

Task: Fill in LC50 for record CC(=O)O[C@H]1CC=C(C)[C@@H]2CC3=C(C)C(=O)O[C@H]3/C=C(/C)CC[C@H](OC(=O)C=C(C)C)[C@@]12C [MALAYENOLIDE C]
Output: 20

Task: Fill in LC50 for record CC(=O)O[C@H]1CC=C(C)[C@@H]2CC3=C(C)C(=O)O[C@H]3/C=C(/C)CC[C@H](OC(=O)c3ccccc3)[C@@]12C [MALAYENOLIDE A]
Output: 100
